assay: Phase 1 single ascending dose (Part A) pharmacokinetics, fasted state; type: in vivo, human; settings: human, urine and plasma, oral, 400 mg single dose (A4)

query.smiles | unit.abbreviation | CL renal
Cn1cc(-c2cn(-c3ccc(OC(F)(F)F)cc3)c(=O)c3ncn(C)c23)cn1 | mL/min | 49.7

* * *

assay: Phase 1 multiple ascending dose (Part B) pharmacokinetics after low-fat meal; format: in vivo, human; conditions: human, plasma, oral, 200 mg, 200 mg BID (B1), Day 7, low-fat meal; median

query.smiles | unit.abbreviation | Tmax
Cn1cc(-c2cn(-c3ccc(OC(F)(F)F)cc3)c(=O)c3ncn(C)c23)cn1 | h | 4

* * *

Assay: Phase 1 multiple ascending dose (Part B) pharmacokinetics after low-fat meal
Assay type: in vivo, human
Details: human, urine and plasma, oral, 525 mg, 525 mg QD (B2), Day 1, low-fat meal
Method: In Part B, 24 subjects were studied in 3 groups (Groups B1 to B3), with each group consisting of 8 subjects (6 received Compound I and 2 received placebo). The dose, dosing frequency, duration, and dietary state for Part B were determined based on review of available PK, safety, and tolerability data from Parts A and B. All doses in Part B were administered following administration of a low-fat meal. […]

molecule | CL renal
Cn1cc(-c2cn(-c3ccc(OC(F)(F)F)cc3)c(=O)c3ncn(C)c23)cn1 [Compound I] | 51.7 mL/min
